- ASSAYED_SYSTEM: human complement factor B (CVF-Bb complex) (Homo sapiens (Human), UniProt P00751)
- EXPERIMENT_SUMMARY: Human Complement Factor B ELISA Assay
- Type: biochemical
- RUN_PARAMETERS: CVF-Bb complex 3 nM, 1 hour preincubation with compound at room temperature, human C3 substrate 1 μM, C3a quantified by ELISA; read-out: Factor B IC50
Readings of log10 of IC50 for the listed compounds
Each number you see is log10 of IC50, and the unit inside the log is µM.

Consider the following illustrative entries.
COc1cc2c(N)nc(N3CCN(C(=O)C[C@@H]4CCCCN4)C[C@@H]3c3ccccc3)nc2c(F)c1OC [Example 121]
-1.70
CCC[C@H]1CN(C(=O)c2cc3cc(F)ccc3[nH]2)CCN1c1nc(N)c2cc(OC)c(OC)c(F)c2n1 [Example 27]
-0.55
COc1cc2c(N)nc(N3CCN(C(=O)c4cc5cc(O)ccc5[nH]4)CC3)nc2c(F)c1OC [Example 19]
-1.10

State the recorded log10 of IC50 for this entry: COc1cc2c(N)nc(N3CCN(C(=O)/C=C/c4ccc(C#N)cc4)C[C@@H]3c3ccccc3)nc2c(F)c1OC [Example 10]
-2.22

State the recorded log10 of IC50 for this entry: COc1cc2c(N)nc(N3CCN(C(=O)/C=C/C4CC4)CC3)nc2c(Br)c1OC [Example 15]
0.11

State the recorded log10 of IC50 for this entry: COc1cc2c(N)nc(N3CCN(C(=O)C[C@@H]4CCCN4)C[C@@H]3c3ccccc3)nc2c(F)c1OC [Example 120]
-1.10

State the recorded log10 of IC50 for this entry: COc1cc2c(N)nc(N3CCN(C(=O)C[C@H](c4ccc(F)cc4)N(C)C)CC3)nc2c(F)c1OC [Example 86]
-1.40
